The reported numbers originate from patent US20210177828A1.

# TEST_TARGET: UniProt Q12866
pIC50: −log10 of the molar value.
PROPERTY: pIC50

COc1cc2nccc(Oc3ccc(NC(=O)c4cn(CC5CCOCC5)c5ccccc5c4=O)nc3)c2cc1OC    7.82
COc1cc2nccc(Oc3ccc(NC(=O)c4cn(CC5CCOCC5)cc(-c5ccc(C)cc5)c4=O)nn3)c2cc1OC    7.47
COc1cc2nccc(Oc3ccc(NC(=O)c4nn(C5CCOCC5)cc(-c5ccc(C)cc5)c4=O)nc3)c2cc1OC    9.00
COc1cc2nccc(Oc3ccc(NC(=O)c4nn(C5CCOCC5)cc(-c5ccc(C)cc5)c4=O)cc3F)c2cc1OC    9.00
COc1cc2nccc(Oc3cnc(NC(=O)c4nn(CC5CCSCC5)cc(-c5ccc(C)cc5)c4=O)nc3)c2cc1OC    8.10
COc1cc2nccc(Oc3ccc(NC(=O)c4cn(C5CCOCC5)cc(-c5ccc(F)cc5)c4=O)nc3)c2cc1OC    8.15

I. COc1cc2nccc(Oc3cnc(NC(=O)c4cn(C5CCOCC5)cc(-c5ccc(F)cc5)c4=O)nc3)c2cc1OC
II. COc1cc2nccc(Oc3ccc(NC(=O)c4cn(CC5CCOCC5)cc(-c5ccc(C)cc5)c4=O)nc3)c2cc1OC
Q. Compare the recorded pIC50 of I and II ; state which is larger. // output: label of the selected item
A. II
(II: 8.70, I: 8.10)

====

# TEST_TARGET: H1299 cell pMer (Homo sapiens, UniProt Q12866)
# Construct: endogenous in cells
# Sequence (Q12866 21-999): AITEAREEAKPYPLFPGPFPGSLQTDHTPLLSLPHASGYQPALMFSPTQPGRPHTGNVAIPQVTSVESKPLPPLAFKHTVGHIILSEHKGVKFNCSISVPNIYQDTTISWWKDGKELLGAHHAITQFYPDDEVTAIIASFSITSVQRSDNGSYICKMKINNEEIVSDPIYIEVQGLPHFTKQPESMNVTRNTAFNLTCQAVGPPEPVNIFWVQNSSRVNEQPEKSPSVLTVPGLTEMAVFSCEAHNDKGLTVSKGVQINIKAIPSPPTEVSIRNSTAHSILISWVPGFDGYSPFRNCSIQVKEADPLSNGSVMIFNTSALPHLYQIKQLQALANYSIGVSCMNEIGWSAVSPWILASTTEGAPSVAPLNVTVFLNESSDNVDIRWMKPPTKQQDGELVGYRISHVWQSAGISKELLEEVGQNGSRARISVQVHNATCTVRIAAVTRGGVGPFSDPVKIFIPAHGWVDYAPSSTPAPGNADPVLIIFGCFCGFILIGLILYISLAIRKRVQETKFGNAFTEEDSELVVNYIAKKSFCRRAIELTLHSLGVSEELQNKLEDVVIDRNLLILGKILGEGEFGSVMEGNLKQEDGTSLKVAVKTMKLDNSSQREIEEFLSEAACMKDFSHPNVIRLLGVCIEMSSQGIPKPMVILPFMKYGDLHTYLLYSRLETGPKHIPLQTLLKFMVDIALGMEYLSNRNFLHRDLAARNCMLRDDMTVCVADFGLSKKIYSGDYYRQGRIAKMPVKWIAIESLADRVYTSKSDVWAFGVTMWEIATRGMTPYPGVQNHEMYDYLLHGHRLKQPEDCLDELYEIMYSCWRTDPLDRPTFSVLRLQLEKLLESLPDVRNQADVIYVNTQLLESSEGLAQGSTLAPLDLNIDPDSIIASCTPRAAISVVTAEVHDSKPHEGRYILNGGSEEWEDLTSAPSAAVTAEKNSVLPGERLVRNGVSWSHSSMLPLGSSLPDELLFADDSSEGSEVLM
# METHOD: Inhibitory activity on cell pMer, H1299 cells, Human Mer Mab stimulation, Western Blot
# COND: Human Mer Mab 200 ng/mL
Catalogue of compounds with associated IC50

Solved cases below.
COc1cc2nccc(Oc3ccc(NC(=O)c4nn(CC5CCOCC5)cc(-c5ccc(C)cc5)c4=O)nc3)c2cc1OC    1.1 nM
COc1cc2nccc(Oc3cnc(NC(=O)c4cn(CC5CCOCC5)cc(-c5ccc(C)cc5)c4=O)nc3)c2cc1OC    1.1 nM

Q. Under H1299 cell pMer (Homo sapiens, UniProt Q12866), report IC50 for COc1cc2nccc(Oc3cnc(NC(=O)c4cn(C5CCOCC5)cc(-c5ccc(C)cc5)c4=O)nc3)c2cc1OC
A. 3.3 to 10 nM

Q. Under H1299 cell pMer (Homo sapiens, UniProt Q12866), report IC50 for COc1cc2nccc(Oc3cnc(NC(=O)c4nn(CC5CCOCC5)cc(-c5ccc(C)cc5)c4=O)nc3)c2cc1OC
A. 1.1 nM

Q. Under H1299 cell pMer (Homo sapiens, UniProt Q12866), report IC50 for COc1cc2nccc(Oc3cnc(NC(=O)c4cn(C5CCOCC5)cc(-c5ccc(F)cc5)c4=O)nc3)c2cc1OC
A. 3.3 to 10 nM

Q. Under H1299 cell pMer (Homo sapiens, UniProt Q12866), report IC50 for COc1cc2nccc(Oc3ccc(NC(=O)c4nn(C5CCOCC5)cc(-c5ccc(C)cc5)c4=O)nc3)c2cc1OC
A. < 0.35 nM
